Test system: Shewanella sp. (TC11)
Assay: Anti-adhesion test, strain TC11
Format: cell-based
Settings: 15 h, 200 μM, strain TC11, read-out: % of adhesion at 200 μM, TC11
Description: Bacterial strains were grown on Väätänen nine-salts solution (VNSS). When the stationary phase was reached, the bacterial suspension was centrifuged. […] After incubation during an optimized adhesion time (moderately 15 h), non-adhered bacteria were eliminated and adhered cells were quantified after SYTO 61 (1 μM) staining. A percentage of inhibition was calculated per well. […] EC50 values were then calculated for each compound. […]
activity at 200 µM values, listed per item
The answer is to be given in %; state only the numeric part.

CN(C)CCCOc1ccc(CCCn2cc(-c3ccc(-c4cn(CCCc5ccc(OCCCN(C)C)c(Br)c5)nn4)cc3)nn2)cc1Br [SA32] | 17.4
Oc1ccc(CCn2cc(-c3ccc(-c4cn(CCc5ccc(O)c(I)c5)nn4)cc3)nn2)cc1I [SA43] | 4.6

Dear colleague, I am looking for the recorded activity at 200 µM of the following compound: CN(C)CCCOc1ccc(CCn2cc(-c3ccc(-c4cn(CCc5ccc(OCCCN(C)C)c(Cl)c5)nn4)cc3)nn2)cc1Cl [SA64]
42.6

Cool, now CN(C)CCCOc1c(Br)cc(CCn2cc(-c3ccc(-c4cn(CCc5cc(Br)c(OCCCN(C)C)c(Br)c5)nn4)cc3)nn2)cc1Br [SA34]
7
